Source of measurements: ChEMBL document CHEMBL4020820

Test system: Brain
ASSAY_SUMMARY: Effect on oxidative phosphorylation efficiency in C57BL/6 mouse brain mitochondria assessed as change in state 3 respiratory rate of glutamate at 3.3 uM relative to control
Assay type: ADME
QUANTITY: Activity (%)
Enter your answer as a number in %; do not include the unit.

Which Activity value belongs to `COc1cc(/C=C/C(=O)/C(Cc2cn(CCNC(=O)COCC(=O)NCCCCO[C@H]3CC[C@@]4(C)C(=CC[C@H]5[C@@H]6C[C@@H]7O[C@]8(CC[C@@H](C)CO8)[C@@H](C)[C@@H]7[C@@]6(C)CC[C@@H]54)C3)nn2)=C(O)/C=C/c2ccc(O)c(OC)c2)ccc1O` ? 11.5

====

Listed next: entries and their corresponding Ratio.
System: Brain
ASSAY_SUMMARY: Effect on oxidative phosphorylation efficiency in C57BL/6 mouse brain mitochondria assessed as respiratory control ratio at 3.3 uM using succinate as substrate (reference value: 2.3 +/- 0.2)
Type: ADME
Returns: the value as a bare number; no unit string appended.

In the examples that follow, each entry is paired with its recorded Ratio.
SUBSTANCE_SMILES	Ratio
COc1cc(/C=C/C(=O)/C(Cc2cn(CCNC(=O)COCC(=O)NCCCCO[C@H]3CC[C@@]4(C)C(=CC[C@H]5[C@@H]6C[C@@H]7O[C@]8(CC[C@@H](C)CO8)[C@@H](C)[C@@H]7[C@@]6(C)CC[C@@H]54)C3)nn2)=C(O)/C=C/c2ccc(O)c(OC)c2)ccc1O	2.1
COc1cc(/C=C/C(=O)/C(Cc2cn(CCNC(=O)COCC(=O)NCCCCN[C@H]3CC[C@@]4(C)C(=CC[C@H]5[C@@H]6CC[C@H]([C@H](C)CCCC(C)C)[C@@]6(C)CC[C@@H]54)C3)nn2)=C(O)/C=C/c2ccc(O)c(OC)c2)ccc1O	2.6
CCCCNC(=O)COCC(=O)NCCn1cc(C/C(C(=O)/C=C/c2ccc(O)c(OC)c2)=C(O)\C=C\c2ccc(O)c(OC)c2)nn1	1.2

Proceeding to the next molecule to report its Ratio.
So what Ratio did `COc1cc(/C=C/C(=O)/C(Cc2cn(CCNC(=O)COCC(=O)NCCCCO[C@H]3CC[C@@]4(C)C(=CC[C@H]5[C@@H]6CC[C@H]([C@H](C)CCCC(C)C)[C@@]6(C)CC[C@@H]54)C3)nn2)=C(O)/C=C/c2ccc(O)c(OC)c2)ccc1O` get with Brain? 2.4
